Where do the numbers come from? From PubChem BioAssay.

Answer each item with its documented activation.
Tested on: Nuclear hormone receptor DAF-12 (Haemonchus contortus)
Test: H. contortus DAF-12 receptor agonists, confirmation, cell-based, luminescence, HEK293, lit1-tk-luc, triplicate (AID 743032);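 further: 0% = DMSO only wells and 100% = 3 µM Δ7-dafachronic acid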
Conditions: HEK293 hcDAF-12 lit1-tk-luc reporter, at 6.8 µM, stronger effect = higher value, % of Δ7-dafachronic acid response
This is one part of the list.
Numbers only, in %.

Some solved cases for reference:
- molecule: "CC(C)(C)OC(=O)N/N=C/c1ccc(C(=O)O)cc1"
  assay-target: "Nuclear hormone receptor DAF-12 (Haemonchus contortus)"
  activation [%]: 0.76
- molecule: "Cc1ccccc1C(=O)N[C@H](C(=O)N1CCC[C@H]1C(=O)NCc1ccccc1)C(C)C"
  assay-target: "Nuclear hormone receptor DAF-12 (Haemonchus contortus)"
  activation [%]: 0.18
- molecule: "Cc1cc(O)c(C(=O)/C=C/c2c(F)c(F)c(F)c(F)c2F)c(=O)o1"
  assay-target: "Nuclear hormone receptor DAF-12 (Haemonchus contortus)"
  activation [%]: -1.06
- molecule: "c1ccc(C2=Nc3cccc4cccc(c34)N2)cc1"
  assay-target: "Nuclear hormone receptor DAF-12 (Haemonchus contortus)"
  activation [%]: 3.48
- molecule: "Cc1c(C(=O)Nc2ccccn2)oc2ccc(Br)cc12"
  assay-target: "Nuclear hormone receptor DAF-12 (Haemonchus contortus)"
  activation [%]: 15.4
- molecule: "Cc1ccc(S(=O)(=O)Nc2nc3ccccc3nc2N2CCc3ccccc3C2)cc1"
  assay-target: "Nuclear hormone receptor DAF-12 (Haemonchus contortus)"
  activation [%]: 8.94
- molecule: "c1ccc(Nc2nc(-c3ccncc3)cs2)nc1"
  assay-target: "Nuclear hormone receptor DAF-12 (Haemonchus contortus)"
  activation [%]: 8.34
- molecule: "NS(=O)(=O)c1ccccc1NC(=O)c1c(O)c2ccccc2[nH]c1=O"
  assay-target: "Nuclear hormone receptor DAF-12 (Haemonchus contortus)"
  activation [%]: 9.27
- molecule: "Cc1cc(C)c(/C=C2\\C(=O)Nc3ccccc32)[nH]1"
  assay-target: "Nuclear hormone receptor DAF-12 (Haemonchus contortus)"
  activation [%]: 7.13
- molecule: "O=C(NC1CCCCC1)C(c1cc2ccccc2o1)n1c(=O)c(-c2ccco2)nc2ccccc21 (centres undefined)"
  assay-target: "Nuclear hormone receptor DAF-12 (Haemonchus contortus)"
  activation [%]: 5.1

Here are 2 molecules. What values of activation were reported for them?
1. Cc1nc2cc(NC(=O)Nc3cccc(F)c3)ccc2n1C
2. Cc1ccc(N/C=C/C(=O)c2ccccc2)cc1C

1. 11.2
2. 16.8

---

Answer each item with its documented inhibition.
Test: StAR promoter reporter inhibitors, counter-screen for LRH-1 inverse agonist project, cell-based, luminescence, high throughput (AID 651611)
Details: StAR promoter luciferase reporter counterscreen, at 3.6 µM, stronger effect = higher value
Answers are plain numbers, in %.

- molecule: "O=C(c1ccoc1)N1CCN(c2cc(-c3ccco3)nc3cc(-c4ccccc4)nn23)CC1"
  readout-value: 46.1

Here are 3 molecules. What values of inhibition were reported for them?
1. CC1CCc2nc(NC(=O)CSc3nc4ccccc4o3)sc2C1 (stereo unspecified)
2. CN1CCN(c2ccc(CNS(=O)(=O)Cc3cccc(C(F)(F)F)c3)cc2)CC1
3. CC(C)CCCCCCCCCCCCC(=O)NCC(=O)NC1C(O)C(O)C(Nc2ncnc3nc[nH]c23)OC1C(O)CO (stereo unspecified)

5.74
15.4
96.7

Here are 2 molecules. What values of inhibition were reported for them?
1. O=c1c2ccccc2ncn1Cc1ccco1
2. Cc1ccc(NCCN(C)C)c2c(=O)c3cc(O)ccc3sc12

1.6
41.3

Here are 5 molecules. What values of inhibition were reported for them?
1. Cc1cc(Br)ccc1NC(=O)CSc1nnc(CN2CCOCC2)n1C
2. Cc1onc(-c2ccccc2Cl)c1-c1nc(-c2ccncc2)no1
3. N=c1c2c(-c3ccccc3)c(-c3ccccc3)n(Cc3ccccc3)c2ncn1CCO
4. O=C(CCl)N(c1ccccc1)C1CCS(=O)(=O)C1 (stereo unspecified)
5. Cc1ccc2c(c1)Oc1ccc(NC(=O)CCl)cc1C(=O)N2

1. 15.4
2. 7.38
3. 57.2
4. 50.6
5. 61.7

---

Target: Nuclear receptor coactivator 3 (Homo sapiens)
Test: SRC3 coactivator transcriptional activity inhibitors, confirmation, cell-based, luminescence, quadruplicate (AID 588792);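 further: 0% = DMSO treated cells and 100% = gossypol at 36 µM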
Conditions: HEK293 GAL4-SRC3 luciferase reporter, at 3.6 µM, stronger effect = higher value
Active and inactive are the calls of the source.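 Rule for the calls: active = mean inhibition over 43.08%, the solvent-only control mean plus 3 SD; inactive = the rest.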
property: inhibition

Some solved cases for reference:
- record-smiles: "O=C(N[C@@H](Cc1ccccc1)C(=O)CCl)OCc1ccccc1"
  inhibition: "31.5% (inactive)"
- record-smiles: "Cc1cc(=O)[nH]c(N/N=C/c2cc(C)n(CC(F)(F)F)c2C)n1"
  inhibition: "22% (inactive)"
- record-smiles: "COc1ccc(NC(=O)CN(C)C(=O)C2(c3ccccc3)CCCC2)cc1"
  inhibition: "25.3% (inactive)"

Here are 5 compounds. What values of inhibition were reported for them?
1. O=C(Nc1ccon1)c1nc[nH]c1C(=O)NCc1ccccc1
2. CCOC1=C2CN(S(=O)(=O)c3ccc(C)cc3)[C@H](c3ccc(CC)cc3)C[C@@H]2N(S(=O)(=O)c2ccc(C)cc2)[C@H](c2ccccc2)C1
3. CC1=[N+]([O-])C(C)(C)CC(C)(C)c2ccccc21
4. COc1ccc(-c2nc(CSCC(=O)NCc3ccco3)c(C)o2)cc1
5. COc1ccc2c(O)c(-c3c(C)cc(C)cc3C)c(=O)[nH]c2c1

["35.1% (inactive)", "10.9% (inactive)", "3.29% (inactive)", "42.1% (inactive)", "-14.3% (inactive)"]

Here are 2 compounds. What values of inhibition were reported for them?
1. CC(=O)Nc1ccc(SCC(=O)c2cc(C)n(Cc3cccs3)c2C)cc1
2. COc1ccc2nc(C)cc(Sc3nc4ccccc4s3)c2c1

1. 52.1% (active)
2. 28.2% (inactive)

---

Experiment: StAR promoter reporter inhibitors, counter-screen for LRH-1 inverse agonist project, cell-based, luminescence, high throughput (AID 651611)
Details: StAR promoter luciferase reporter counterscreen, at 3.6 µM, stronger effect = higher value
// thresholds for inhibition classes: 0 = under 10%, 1 = from 10% up to 30%, 2 = 30% and over

Solved cases (5 shown):
- molecule: "O=[N+]([O-])c1ccc(N2CCCC2)nc1N1CCCC1"
  answer-label: 1
- molecule: "Cc1cc(C)c2sc(NNC(=O)c3ccc(S(=O)(=O)N4CCc5ccccc5C4)cc3)nc2c1"
  answer-label: 2
- molecule: "COC(=O)Cc1sc(-c2ccccn2)nc1-c1ccccc1"
  answer-label: 1
- molecule: "Cc1sc(NC(=O)C(C)C)c(C(=O)Nc2ccccc2)c1C"
  answer-label: 1
- molecule: "COc1cc(/C=C/C(=O)c2ccc(C)cc2)ccc1OCC#N"
  answer-label: 1

Which class is correct for the following molecule? O=C(COC(=O)c1ccc(S(=O)(=O)N2CCCC2)cc1)Nc1ccc(N2CCOCC2)cc1
1

---

Experiment: VP16 transactivation reporter inhibitors, counter-screen for LRH-1 inverse agonist project, cell-based, luminescence, high throughput (AID 651615)
Settings: Gal4-VP16 luciferase reporter cells, at 3.6 µM, stronger effect = higher value
Answer each item with its documented inhibition.
One number for each entry, in %.

- compound: "COC(=O)c1ccc(NC(=O)CN2CCN(c3ccc(Cl)cc3)CC2)cc1"
  property: "inhibition"
  readout-value: 2.51
- compound: "CC(C)c1ccc(NC(=O)CSc2nc(=O)[nH]c3c2CCCC3)cc1"
  property: "inhibition"
  readout-value: -10.5
- compound: "O=c1[nH]c2cc3ccccc3cc2nc1-c1nnnn1C1CCCC1"
  property: "inhibition"
  readout-value: 8.72

Here are 7 compounds. What values of inhibition were reported for them?
1. Cc1cc(N2CCN(C(=O)c3ccco3)CC2)n2nc(-c3cccc(F)c3)cc2n1
2. CCC1=C(CC2NCCc3ccccc32)CC2c3cc(OC)c(OC)cc3CCN2C1 (stereo not given)
3. O=C(COC(=O)CCN1C(=O)C2CC=CCC2C1=O)NCCc1ccc(F)cc1 (stereo not given)
4. Cc1ccc(OCCN2CCN(c3ncnc4sc(C)c(C)c34)CC2)cc1
5. C=C1C(=O)C23C(O)C1CCC2C12CCCC(C)(COC(C)=O)C1C(O)C3(O)OC2 (stereo not given)
6. CC(C)(C)N(Cc1ccc2c(c1)OCO2)C(=O)/C=C\S(=O)c1ccccc1 (stereo not given)
7. N=c1ccn(CC(=O)c2ccc(-c3ccccc3)cc2)cc1

1. -10.7
2. 93.9
3. -1.34
4. 53.9
5. 82.5
6. 61.6
7. 76.5

---

Test: VP16 transactivation inhibitors, counter-screen for SRC1 inhibitor project, cell-based, luminescence, high throughput (AID 588824)
Settings: cell-based VP16 transactivation luciferase luminescence; at 3.6 µM
The source made the active and inactive calls. Rule as the data show it: active = inhibition above about 25%; inactive = the rest.
// classify into active, inactive

Would you mind telling me which call this test gave CCOC(=O)CNC(c1ccccc1)c1cc(Br)ccc1NC(C)=O (stereo unspecified) ?
inactive

Would you mind telling me which call this test gave Cc1cnc(C(=O)Nc2cccc3cccnc23)cn1 ?
inactive

Would you mind telling me which call this test gave C=CCNc1ncnc2ccc(Br)cc12 ?
inactive

Would you mind telling me which call this test gave COc1ccc(C(=O)Nc2ccc(Cl)c(S(=O)(=O)N3CCOCC3)c2)cc1 ?
inactive

Would you mind telling me which call this test gave Cc1cc2sc3ccc(C#CC4(O)CCCCC4)cc3c(=O)c2cc1C ?
active

Would you mind telling me which call this test gave COc1cc(SC)ccc1C(=O)Nc1nc2ccccc2[nH]1 ?
active
